Measured recombinant UMI read abundance (log10) of individual entries
assay_protocol: recombinant UMI read abundance after kanamycin selection (control-corrected) (log10(CPM+1)); higher = more efficient recombination; extreme values may be limits of the assay; sequences stand for … in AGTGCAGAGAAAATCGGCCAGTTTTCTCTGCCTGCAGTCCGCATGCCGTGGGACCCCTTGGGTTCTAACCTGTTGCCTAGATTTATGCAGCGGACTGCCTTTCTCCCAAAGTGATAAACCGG…AGGTTGGTTTCACT; site = the 11-nt donor

Req: Return recombinant UMI read abundance (log10) for the following sequence: GTGGAGGCATGGACCGGTTTTCCCGGTAATCCGTATTTGTG (site GTGGAGTCTCA)
Resp: 1.82

Req: Return recombinant UMI read abundance (log10) for the following sequence: ACTAGTGCATGGACCGGTTTTCCCGGTAATCCGTATTTGGA (site ACTAGTGCTAC)
Resp: 0

Req: Return recombinant UMI read abundance (log10) for the following sequence: ACTGTATCATGGACCGGTTTTCCCGGTAATCCGTATTTGAA (site ACTGTATCTTT)
Resp: 1.99

Req: Return recombinant UMI read abundance (log10) for the following sequence: CTGGAAACATGGACCGGTTTTCCCGGTAATCCGTATTTGCC (site CTGGAAACTCG)
Resp: 0

Req: Return recombinant UMI read abundance (log10) for the following sequence: CAATTCGCATGGACCGGTTTTCCCGGTAATCCGTATTTGCT (site CAATTCGCTAG)
Resp: 0.564

Req: Return recombinant UMI read abundance (log10) for the following sequence: TCCACCGCATGGACCGGTTTTCCCGGTAATCCGTATTTGGG (site TCCACCGCTCA)
Resp: 0.0369

Req: Return recombinant UMI read abundance (log10) for the following sequence: CGTGGGACATGGACCGGTTTTCCCGGTAATCCGTATTTGTT (site CGTGGTACTAA)
Resp: 0

Req: Return recombinant UMI read abundance (log10) for the following sequence: GCTGCCTCATGGACCGGTTTTCCCGGTAATCCGTATTTGGT (site GCTGCCTCTAC)
Resp: 0.342

Req: Return recombinant UMI read abundance (log10) for the following sequence: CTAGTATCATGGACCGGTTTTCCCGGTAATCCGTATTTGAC (site CTTGTATCTGC)
Resp: 0

====

assay_protocol: recombinant barcode read abundance after kanamycin selection (control-corrected) (log10(CPM+1)); higher = more efficient recombination; sequences stand for … in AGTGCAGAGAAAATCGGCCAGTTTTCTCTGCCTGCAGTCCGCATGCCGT…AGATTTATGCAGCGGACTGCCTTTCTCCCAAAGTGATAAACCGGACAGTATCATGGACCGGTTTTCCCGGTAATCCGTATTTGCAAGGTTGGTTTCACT; site = the 11-nt target
Measured recombinant barcode read abundance (log10) of individual entries

{"columns": ["polymer_sequence", "result_value"],
 "data": [
  ["TGGAGCCCTTGGGTTCTAACCTGTTGCAA (site TGGAGCCCTGT)", 0.263],
  ["TCGCGGACTTGGGTTCTAACCTGTTGCCT (site TCGCGGACTAG)", 0.168],
  ["ACATGTGCTTGGGTTCTAACCTGTTGCCT (site ACAGGTGCTAG)", 0.0246],
  ["CAGTGAACTTGGGTTCTAACCTGTTGCCT (site CCGTGAACTAG)", 0.181]
]}

Req: Return recombinant barcode read abundance (log10) for the following sequence: ATGTCGTCTTGGGTTCTAACCTGTTGCCT (site AAGTCGTCTAG)
Resp: 0.0812

====

assay_protocol: recombinant UMI read abundance after kanamycin selection (control-corrected) (log10(CPM+1)); higher = more efficient recombination; extreme values may be limits of the assay; sequences stand for … in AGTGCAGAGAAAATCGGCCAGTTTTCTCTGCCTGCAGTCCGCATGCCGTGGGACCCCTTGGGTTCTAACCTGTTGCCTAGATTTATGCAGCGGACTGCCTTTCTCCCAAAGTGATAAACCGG…AGGTTGGTTTCACT; site = the 11-nt donor
Decision: recombinant UMI read abundance (log10) >= 0.4 yields met, all other cases yield not met.

Look over these answered cases.
{"columns": ["polymer_sequence", "label"],
 "data": [
  ["GACAAACCATGGACCGGTTTTCCCGGTAATCCGTATTTGGA (site GACAAACCTCC)", "not met"],
  ["CTTCTCTCATGGACCGGTTTTCCCGGTAATCCGTATTTGGA (site CTTCTCTCTTT)", "met"],
  ["CGTCTCTCATGGACCGGTTTTCCCGGTAATCCGTATTTGTA (site CGTCTCTCTTA)", "met"],
  ["ATGGAGGCATGGACCGGTTTTCCCGGTAATCCGTATTTGGC (site ATGAAGGCTGC)", "met"],
  ["CGAGCAGCATGGACCGGTTTTCCCGGTAATCCGTATTTGCT (site CTAGCAGCTAG)", "met"],
  ["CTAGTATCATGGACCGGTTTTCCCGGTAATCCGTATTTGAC (site CTAGTGTCTGT)", "met"],
  ["AGGTCTACATGGACCGGTTTTCCCGGTAATCCGTATTTGAC (site AGGGCTACTGT)", "not met"],
  ["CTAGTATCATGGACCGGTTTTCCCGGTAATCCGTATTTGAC (site CTATTATCTGC)", "not met"],
  ["ACAGTAACATGGACCGGTTTTCCCGGTAATCCGTATTTGCA (site ACAGTATCTTG)", "met"],
  ["GGAGTGGCATGGACCGGTTTTCCCGGTAATCCGTATTTGCT (site GGAGTGGCTAT)", "met"]
]}

Req: Does the sequence CTAGTCGCATGGACCGGTTTTCCCGGTAATCCGTATTTGCG (site ATAGTCGCTCG) have recorded recombinant UMI read abundance (log10) that is 0.4 or more?
Resp: not met

Req: Does the sequence AGGGAAACATGGACCGGTTTTCCCGGTAATCCGTATTTGCA (site AGGAAGACTTG) have recorded recombinant UMI read abundance (log10) that is 0.4 or more?
Resp: not met

Req: Does the sequence CCAGAGACATGGACCGGTTTTCCCGGTAATCCGTATTTGCG (site TCAGAGACTCG) have recorded recombinant UMI read abundance (log10) that is 0.4 or more?
Resp: not met

Req: Does the sequence GCCTAGCCATGGACCGGTTTTCCCGGTAATCCGTATTTGCC (site GCCTAGCCTGG) have recorded recombinant UMI read abundance (log10) that is 0.4 or more?
Resp: not met

Req: Does the sequence GTAAGCACATGGACCGGTTTTCCCGGTAATCCGTATTTGTA (site GTAAGCACTTA) have recorded recombinant UMI read abundance (log10) that is 0.4 or more?
Resp: met

====

assay_protocol: recombinant barcode read abundance after kanamycin selection (control-corrected) (log10(CPM+1)); higher = more efficient recombination; sequences stand for … in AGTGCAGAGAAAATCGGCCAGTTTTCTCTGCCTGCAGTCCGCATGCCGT…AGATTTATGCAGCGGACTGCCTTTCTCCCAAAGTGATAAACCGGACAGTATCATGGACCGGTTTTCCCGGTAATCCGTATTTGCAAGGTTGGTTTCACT; site = the 11-nt target
measurement_name: recombinant barcode read abundance (log10)
API note: the answer field is a bare number with no unit suffix.

Example entries begin here.
{"columns": ["polymer_sequence", "result_value"],
 "data": [
  ["CGTATCCCTTGGGTTCTAACCTGTTGCTG (site CGTCTCCCTAA)", 0.155],
  ["AGAGAATCTTGGGTTCTAACCTGTTGCCT (site AGTGAATCTAG)", 0.196]
]}

Req: Return recombinant barcode read abundance (log10) for the following sequence: GTGTATCCTTGGGTTCTAACCTGTTGCAT (site GTGTTTCCTAT)
Resp: 0.0918

Req: Return recombinant barcode read abundance (log10) for the following sequence: AGACCACCTTGGGTTCTAACCTGTTGCCT (site ATACCACCTAG)
Resp: 0.847

Req: Return recombinant barcode read abundance (log10) for the following sequence: TCCGACTCTTGGGTTCTAACCTGTTGCCG (site TCCTACTCTCG)
Resp: 0.122

====

assay_protocol: recombinant UMI read abundance after kanamycin selection (control-corrected) (log10(CPM+1)); higher = more efficient recombination; extreme values may be limits of the assay; sequences stand for … in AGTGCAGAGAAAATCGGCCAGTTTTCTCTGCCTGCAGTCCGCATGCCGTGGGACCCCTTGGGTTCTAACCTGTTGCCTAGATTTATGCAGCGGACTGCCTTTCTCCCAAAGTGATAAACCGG…AGGTTGGTTTCACT; site = the 11-nt donor
Measured recombinant UMI read abundance (log10) of individual entries
API note: the answer field is a bare number with no unit suffix.

Example entries begin here.
{"columns": ["polymer_sequence", "recombinant UMI read abundance (log10)"],
 "data": [
  ["ATGTAGGCATGGACCGGTTTTCCCGGTAATCCGTATTTGCC (site ATGTAGGCTGC)", 0],
  ["TACTTGACATGGACCGGTTTTCCCGGTAATCCGTATTTGCT (site TACTTCACTAG)", 0.00555],
  ["TTCCCTTCATGGACCGGTTTTCCCGGTAATCCGTATTTGCA (site TTCCCTTCTTG)", 0],
  ["CCCAATTCATGGACCGGTTTTCCCGGTAATCCGTATTTGCC (site ACCAATTCTGG)", 0],
  ["TAGAAAACATGGACCGGTTTTCCCGGTAATCCGTATTTGCA (site TAGAACACTTG)", 1.57]
]}

Req: Return recombinant UMI read abundance (log10) for the following sequence: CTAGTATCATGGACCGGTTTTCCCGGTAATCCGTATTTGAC (site GTATTATCTGT)
Resp: 0

Req: Return recombinant UMI read abundance (log10) for the following sequence: TCCCACCCATGGACCGGTTTTCCCGGTAATCCGTATTTGCA (site TCCCACCCTTG)
Resp: 0

Req: Return recombinant UMI read abundance (log10) for the following sequence: ACACGGACATGGACCGGTTTTCCCGGTAATCCGTATTTGCT (site ACACGGACTAG)
Resp: 2.76

Req: Return recombinant UMI read abundance (log10) for the following sequence: CGGTTATCATGGACCGGTTTTCCCGGTAATCCGTATTTGCT (site CGGTTATCTAG)
Resp: 2.65
